Please go through the items and note down their Population Fragmented Nuclei (%).
system: U2OS; experiment: Multiplex assay against U2OS; assay type: toxicity, cell-based; settings: human, 12 h, 1 µM, compound concentration 1 uM, replicate 2
Answers are plain numbers, in %.

1) CCOC(=O)CCNc1cc(N2CCc3ccccc3CC2)nc(-c2ccccn2)n1 | 4
2) CCOc1ccn(-c2ccc(F)cc2)c(=O)c1C(=O)Nc1ccc(Oc2ccnc(N)c2Cl)c(F)c1 | 4
3) CN1C(=O)[C@@H](NC(=O)c2cc3ccccc3[nH]2)N=C(c2ccccc2)c2ccccc21 [DEVAZEPIDE] | 4

For each of the compounds below, note its Population Fragmented Nuclei (%).
1. Cc1ccc(S(=O)(=O)NC2c3ccccc3Oc3ccccc32)cc1
2. Cl.Cn1c2c(c3ccc(Cl)c(Cl)c31)C(C#N)C1(CCNCC1)NC2=O (configuration not stated)
3. Oc1cccc(-c2nc(N3CCOCC3)c3oc4ncccc4c3n2)c1
4. C=CC(=O)Nc1cc(-n2c(=O)ccc3cnc4ccc(-c5ccc(NS(C)(=O)=O)cc5)cc4c32)ccc1C

[reply]
1: 10; 2: 4; 3: 10; 4: 10

====

tested on: U2OS; test: Multiplex assay against U2OS; type: toxicity, cell-based; conditions: human, 12 h, 1 µM, compound concentration 1 uM, replicate 2
Class (required): determined from Population Mitochondria Different-Phenotype (%); valid ranges are group A: < 20%; group B: ≥ 20% and < 30%; group C: ≥ 30%

1. CC(C)c1cc(Nc2nc(N3CCC[C@H](N)C3)ncc2C(N)=O)cc(C(C)C)n1 | group C

[ask] Where would CN1C(=O)[C@@H](NC(=O)c2cc3ccccc3[nH]2)N=C(c2ccccc2)c2ccccc21 [DEVAZEPIDE] land among the classes by reported Population Mitochondria Different-Phenotype (%)?
[reply] group B

[ask] Where would CCOC(=O)CCNc1cc(N2CCc3ccccc3CC2)nc(-c2ccccn2)n1 land among the classes by reported Population Mitochondria Different-Phenotype (%)?
[reply] group B

[ask] Where would N#CCNC(=O)c1ccc(-c2ccnc(Nc3ccc(N4CCOCC4)cc3)n2)cc1 land among the classes by reported Population Mitochondria Different-Phenotype (%)?
[reply] group A

[ask] Where would Cl.NC[C@@H]1O[C@H](C23CC4CC(CC(C4)C2)C3)Cc2c1ccc(O)c2O land among the classes by reported Population Mitochondria Different-Phenotype (%)?
[reply] group A

[ask] Where would Cc1c(Nc2ccc(S(=O)(=O)N3CCN(C)CC3)cc2F)nc2ccc(-c3cnn(C4CC4)c3)cn2c1=O land among the classes by reported Population Mitochondria Different-Phenotype (%)?
[reply] group A

[ask] Where would CC[C@@H]1C(=O)N(C)c2cnc(Nc3ccc(C(=O)NC4CCN(C)CC4)cc3OC)nc2N1C1CCCC1 land among the classes by reported Population Mitochondria Different-Phenotype (%)?
[reply] group B

[ask] Where would Cl.Cn1c2c(c3ccc(Cl)c(Cl)c31)C(C#N)C1(CCNCC1)NC2=O (stereo not drawn) land among the classes by reported Population Mitochondria Different-Phenotype (%)?
[reply] group C

====

test system: U2OS; test: Multiplex assay against U2OS; assay type: toxicity, cell-based; settings: human, 24 h, 10 µM, compound concentration 10 uM, replicate 2
Could you label it true if measured Population Tubulin-Different-Phenotype (%) is 30% or higher, and false otherwise?

1) CN1CCN(Cc2ccc(-c3cnc4[nH]cc(-c5ccc6[nH]ccc6c5)c4c3)cc2)CC1 | false
2) Cc1ccc(S(=O)(=O)NC2c3ccccc3Oc3ccccc32)cc1 | true

[ask] Check the entry CCOC(=O)CCNc1cc(N2CCc3ccccc3CC2)nc(-c2ccccn2)n1 : does Population Tubulin-Different-Phenotype (%) equal or exceed 30%?
[reply] false

[ask] Check the entry CC(Cc1ccc(O)c(O)c1)C(C)Cc1ccc(O)c(O)c1 (stereo not given) [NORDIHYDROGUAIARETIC ACID] : does Population Tubulin-Different-Phenotype (%) equal or exceed 30%?
[reply] true

[ask] Check the entry CC[C@@H]1C(=O)N(C)c2cnc(Nc3ccc(C(=O)NC4CCN(C)CC4)cc3OC)nc2N1C1CCCC1 : does Population Tubulin-Different-Phenotype (%) equal or exceed 30%?
[reply] true

[ask] Check the entry C=CC(=O)Nc1cc(-n2c(=O)ccc3cnc4ccc(-c5ccc(NS(C)(=O)=O)cc5)cc4c32)ccc1C : does Population Tubulin-Different-Phenotype (%) equal or exceed 30%?
[reply] true

[ask] Check the entry c1ccc(-c2oc3ncnc(NC[C@@H]4CCCO4)c3c2-c2ccccc2)cc1 : does Population Tubulin-Different-Phenotype (%) equal or exceed 30%?
[reply] true

[ask] Check the entry CCOc1ccn(-c2ccc(F)cc2)c(=O)c1C(=O)Nc1ccc(Oc2ccnc(N)c2Cl)c(F)c1 : does Population Tubulin-Different-Phenotype (%) equal or exceed 30%?
[reply] true

[ask] Check the entry CC(C)c1cc(Nc2nc(N3CCC[C@H](N)C3)ncc2C(N)=O)cc(C(C)C)n1 : does Population Tubulin-Different-Phenotype (%) equal or exceed 30%?
[reply] true

[ask] Check the entry Oc1cccc(-c2nc(N3CCOCC3)c3oc4ncccc4c3n2)c1 : does Population Tubulin-Different-Phenotype (%) equal or exceed 30%?
[reply] true

[ask] Check the entry CCCc1cc(C)[nH]c(=O)c1CNC(=O)c1cc(-c2ccc(N3CCN(C(C)C)CC3)nc2)cc2c1cnn2C(C)C : does Population Tubulin-Different-Phenotype (%) equal or exceed 30%?
[reply] true

[ask] Check the entry Cl.Cn1c2c(c3ccc(Cl)c(Cl)c31)C(C#N)C1(CCNCC1)NC2=O (stereo not given) : does Population Tubulin-Different-Phenotype (%) equal or exceed 30%?
[reply] true
